Values were extracted from PubChem BioAssay AID485284.

Recorded binding remaining, % of control for the following compounds
test_method_notes: inhibitors of CD8+ T cell–vesicle binding, dose response, mouse 2C CD8+ T cells, flow cytometry (AID 485284);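 note: drosophila derived vesicles carrying Ld MHC with QL9 peptide plus B7-1 and ICAM-1; vesicle binding seen as anti-B7-1 PE fluorescence on CD8 gated cells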
assay_context: 2C mouse CD8+ T cell-exosome binding; at 45 µM (top of the series)
Entries with a potency or affinity are not part of this list.
Enter your answer as a number in %; do not include the unit.

INSERT INTO measurements (compound, assay_value) VALUES
  ('CCOc1ccc(C(=O)NNC(=O)CN2C(=O)C3CC=CCC3C2=O)cc1OC (stereo unspecified)', 194);

Query: Entry "COc1cc(F)c(C2=CC(=O)C[C@H](c3ccc(F)cc3)C2)cc1F" has what binding remaining, % of control?
Result: 108

Query: Return reported binding remaining, % of control; argument: "CN(C)S(=O)(=O)c1ccc(C(=O)NCCc2ccco2)cc1"
Result: 128

Query: Which binding remaining, % of control value is on record for CCOC(=O)C1(CC2CCCCO2)CCN(S(=O)(=O)c2ccc(C)s2)CC1 (stereo unspecified) ?
Result: 105

Query: Recorded binding remaining, % of control of "CCOC(=O)N1CCC(=NNc2ncc(C(F)(F)F)cc2Cl)CC1" , please.
Result: 24.2
